Assay: Selectivity ratio of IC50 for SHP1 to IC50 for PTP1B
Reported Ratio IC50 is given for each of the following compounds.

Test smiles: O=C(O)COc1ccc(S(=O)(=O)N(Cc2ccc(-c3csnn3)cc2)Cc2ccc3cc(F)c(C(F)(F)P(=O)(O)O)cc3c2)cc1
Ratio IC50: > 5000
--
Test smiles: NS(=O)(=O)C(F)(F)c1ccc(CN(Cc2ccc(-c3csnn3)cc2)S(=O)(=O)c2ccc(OCC(=O)O)cc2)cc1F
Ratio IC50: > 5000
--
Test smiles: O=C(O)COc1ccc(S(=O)(=O)N(Cc2ccc(-c3csnn3)cc2)Cc2ccc(C(F)(F)P(=O)(O)O)c(F)c2)cc1
Ratio IC50: > 5000
--
Test smiles: O=C(O)COc1ccc(S(=O)(=O)N(Cc2ccc(-c3csnn3)cc2)Cc2ccc(C(F)(F)P(=O)(O)O)c(Br)c2)cc1
Ratio IC50: > 5000
--
Test smiles: O=C(O)COc1ccc(S(=O)(=O)N(Cc2ccc(-c3csnn3)cc2)Cc2ccc3cc(F)c(C(F)(F)P(=O)(O)O)cc3n2)cc1
Ratio IC50: > 5000

----------
Reported AUC(0-inf) is given for each of the following compounds.
Test: AUC (0 to infinity) in fasted C57BL/6J mouse at 20 mg/kg, po
Format: ADME, organism-based
Parameters: time infinity, dose 20 mg/kg, route oral
Details: plasma

Test smiles: O=C(O)COc1ccc(S(=O)(=O)N(Cc2ccc(-c3csnn3)cc2)Cc2ccc3cc(F)c(C(F)(F)P(=O)(O)O)cc3c2)cc1
U: ng·h/mL
AUC(0-inf): 8910
//
Test smiles: O=C(O)COc1ccc(S(=O)(=O)N(Cc2ccc(-c3csnn3)cc2)Cc2ccc3cc(F)c(C(F)(F)P(=O)(O)O)cc3n2)cc1
U: ng·h/mL
AUC(0-inf): 1320

----------
Assay: Half life in fasted C57BL/6J mouse at 20 mg/kg, po
Assay type: ADME, organism-based
Set-up: dose 20 mg/kg, route oral
Conditions: in vivo

Test smiles: O=C(O)COc1ccc(S(=O)(=O)N(Cc2ccc(-c3csnn3)cc2)Cc2ccc3cc(F)c(C(F)(F)P(=O)(O)O)cc3n2)cc1
half-life / h: 0.99

Test smiles: O=C(O)COc1ccc(S(=O)(=O)N(Cc2ccc(-c3csnn3)cc2)Cc2ccc3cc(F)c(C(F)(F)P(=O)(O)O)cc3c2)cc1
half-life / h: 6.96

----------
Molecular target: Tyrosine-protein phosphatase non-receptor type 2 (Homo sapiens)
Sequence (P17706 whole entry): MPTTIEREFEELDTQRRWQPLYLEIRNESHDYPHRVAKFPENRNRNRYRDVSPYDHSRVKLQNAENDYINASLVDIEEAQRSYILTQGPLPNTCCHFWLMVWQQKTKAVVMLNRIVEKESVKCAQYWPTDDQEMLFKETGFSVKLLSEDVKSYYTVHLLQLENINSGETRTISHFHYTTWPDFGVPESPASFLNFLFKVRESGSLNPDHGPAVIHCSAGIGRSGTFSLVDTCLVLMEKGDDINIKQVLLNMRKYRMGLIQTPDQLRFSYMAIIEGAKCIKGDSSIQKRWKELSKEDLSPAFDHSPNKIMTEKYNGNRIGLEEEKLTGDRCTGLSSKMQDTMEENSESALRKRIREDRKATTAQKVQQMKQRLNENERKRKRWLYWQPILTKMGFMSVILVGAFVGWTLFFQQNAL
pIC50: −log10 of the molar value.

Test smiles: O=C(O)COc1ccc(S(=O)(=O)N(Cc2ccc(-c3csnn3)cc2)Cc2ccc3cc(F)c(C(F)(F)P(=O)(O)O)cc3c2)cc1
pIC50: 6.06
